These measurements were taken from patent US10906873B2.

Tested on: barnyardgrass (Echinochloa crus-galli)
PROTOCOL_DESCRIPTION: Test B flooded paddy test, barnyardgrass
Format: in vivo
CONDITION_LABEL: Flood, 250 g ai/ha; scale of 0 to 100 where 0 is no effect and 100 is complete control; 13 to 15 d
Task for the reader: assign each of the following compounds its reported Plant response rating, Barnyardgrass.
Answers are plain numbers.

A selection of reference data follows.
INSERT INTO measurements (compound, reported_property, assay_value) VALUES
  ('O=C1NCC(Cc2ccc(F)cc2)C1C(=O)Nc1cccc(F)c1F (stereo not drawn)', 'Plant response rating, Barnyardgrass', 0),
  ('O=C1NCC(/C=C/c2ccc(F)cc2)C1C(=O)Nc1cccc(F)c1F (stereo not drawn)', 'Plant response rating, Barnyardgrass', 40),
  ('O=C1NCC(/C=C/c2ccccc2F)C1C(=O)Nc1ccccc1F (stereo not drawn)', 'Plant response rating, Barnyardgrass', 0),
  ('Cc1cccc(C#CC2CNC(=O)C2C(=O)Nc2cccc(F)c2F)c1 (stereo not drawn)', 'Plant response rating, Barnyardgrass', 0),
  ('O=C1NCC(C#Cc2ccc(F)cc2)C1C(=O)Nc1ccc(F)c(F)c1F (stereo not drawn)', 'Plant response rating, Barnyardgrass', 0);

Give Plant response rating, Barnyardgrass for all compounds that follow.
1. O=C1NCC(/C=C/c2ccc(F)cc2)C1C(=O)Nc1ccccc1F (stereo not drawn)
2. O=C1NCC(C#Cc2cccc(Cl)c2)C1C(=O)Nc1ccccc1F (stereo not drawn) [Compound 25]
3. O=C1NCC(/C=C/c2ccccc2)C1C(=O)Nc1ccccc1F (stereo not drawn)
4. O=C1NCC(C#Cc2ccc(F)cc2)C1C(=O)Nc1cccc(F)c1F (stereo not drawn)
5. O=C1NCC(/C=C/c2cccc(F)c2)C1C(=O)Nc1cccc(F)c1F (stereo not drawn)
6. Cc1cccc(C#CC2CNC(=O)C2C(=O)Nc2ccccc2F)c1 (stereo not drawn)
7. O=C1NCC(CCc2ccccc2)C1C(=O)Nc1ccccc1F (stereo not drawn)
8. O=C1NCC(C#Cc2cccc(Cl)c2)C1C(=O)Nc1ccccc1F (stereo not drawn) [Compound 29]

0
0
0
0
70
0
0
0

Give Plant response rating, Barnyardgrass for all compounds that follow.
1. O=C1NCC(C#Cc2ccc(F)cc2)C1C(=O)Nc1ccccc1F (stereo not drawn)
2. O=C1NCC(CCc2ccccc2)C1C(=O)Nc1cccc(F)c1F (stereo not drawn)
3. O=C1NCC(/C=C/c2ccccc2)C1C(=O)Nc1cccc(F)c1F (stereo not drawn)

1: 0; 2: 0; 3: 40

Give Plant response rating, Barnyardgrass for all compounds that follow.
1. O=C1NCC(C#Cc2cccc(Cl)c2)C1C(=O)Nc1ccc(F)c(F)c1F (stereo not drawn)
2. O=C1NCC(/C=C/c2cccc(F)c2)C1C(=O)Nc1ccccc1F (stereo not drawn)
3. O=C(Nc1cccc(C(F)(F)F)c1)C1CNC(=O)C1C(=O)Nc1cccc(F)c1F (stereo not drawn)
4. Cc1cccc(C#CC2CNC(=O)C2C(=O)Nc2ccc(F)c(F)c2F)c1 (stereo not drawn)
5. O=C1NCC(/C=C/c2ccccc2F)C1C(=O)Nc1cccc(F)c1F (stereo not drawn)

[0, 70, 30, 0, 90]
